tested on: CCRIS mutagenicity, Ames/micronucleus/aberration tests; assay: CCRIS mutagenicity studies; conditions: Test System: MOUSE LYMPHOMA; Strain/Indicator: L5178Y (TK+/TK-); Metabolic Activation: RAT, LIVER, S-9, AROCLOR 1254; Method: SUSPENSION/PLATE
The source made the active and inactive calls. No rule for the calls is given here.
Outcome codes: active, inactive

>  <CHEM SMILES>
CCOC(=O)CBr

>  <GROUP>
active

$$$$
>  <CHEM SMILES>
O=C1C(=O)c2cccc3cccc1c23

>  <GROUP>
active

$$$$
>  <CHEM SMILES>
CCCO

>  <GROUP>
inactive

$$$$
>  <CHEM SMILES>
CC(=O)OC/N=[N+](/C)[O-]

>  <GROUP>
active

$$$$
>  <CHEM SMILES>
O=S(=O)(O)c1c(N=Nc2c(O)ccc3ccccc23)ccc2ccccc12

>  <GROUP>
inactive

$$$$
>  <CHEM SMILES>
ClC(Cl)Cl

>  <GROUP>
active

$$$$
>  <CHEM SMILES>
Cc1cc(C)c(N=Nc2c(O)c(S(=O)(=O)O)cc3cc(S(=O)(=O)O)ccc23)cc1C

>  <GROUP>
active

$$$$
>  <CHEM SMILES>
NS(=O)(=O)c1cc(C(=O)O)c(NCc2ccco2)cc1Cl

>  <GROUP>
active

$$$$
>  <CHEM SMILES>
CC/C=C\C/C=C\C/C=C\CCCCCCCC(=O)O

>  <GROUP>
inactive

$$$$
>  <CHEM SMILES>
O=c1[nH]c(=O)[nH]c(=O)[nH]1

>  <GROUP>
inactive

$$$$
>  <CHEM SMILES>
CCCCC1C(=O)N(c2ccccc2)N(c2ccccc2)C1=O

>  <GROUP>
active

$$$$
>  <CHEM SMILES>
C[Si](C)(Cl)Cl

>  <GROUP>
inactive

$$$$
>  <CHEM SMILES>
Nc1ccc(Cl)cc1

>  <GROUP>
active

$$$$
>  <CHEM SMILES>
O=C(Nc1ccc2c(c1)C=C(S(=O)(=O)O)/C(=N/Nc1ccc(N=Nc3ccc(S(=O)(=O)O)cc3)cc1S(=O)(=O)O)C2=O)Nc1ccc2c(c1)C=C(S(=O)(=O)O)/C(=N/Nc1ccc(N=Nc3ccc(S(=O)(=O)O)cc3)cc1S(=O)(=O)O)C2=O

>  <GROUP>
inactive

$$$$
>  <CHEM SMILES>
Cc1c(C(=O)O)c(O)cc2c1C(=O)c1c(O)c([C@@H]3O[C@H](CO)[C@@H](O)[C@H](O)[C@H]3O)c(O)c(O)c1C2=O

>  <GROUP>
active

$$$$
>  <CHEM SMILES>
N[C@@H](CS)C(=O)O

>  <GROUP>
active

$$$$
>  <CHEM SMILES>
CCOC(=O)CC(=O)CCl

>  <GROUP>
active

$$$$
>  <CHEM SMILES>
CCN(CC)N=O

>  <GROUP>
active

$$$$
>  <CHEM SMILES>
O.O=P([O-])([O-])[O-].[Fe+3]

>  <GROUP>
active

$$$$
>  <CHEM SMILES>
N#CC(C#N)=C(C#N)C#N

>  <GROUP>
inactive

$$$$
>  <CHEM SMILES>
CN(C)c1ccc(N=Nc2cccc3ccccc23)cc1

>  <GROUP>
active

$$$$
>  <CHEM SMILES>
Nc1ncn([C@@H]2O[C@H](CO)[C@@H](O)[C@@H]2O)c(=O)n1

>  <GROUP>
inactive

$$$$
>  <CHEM SMILES>
Oc1c(Br)cc(Br)cc1Br

>  <GROUP>
inactive

$$$$
>  <CHEM SMILES>
Cc1cc(-c2ccc(N)c(C)c2)ccc1N

>  <GROUP>
active

$$$$
>  <CHEM SMILES>
Nc1ncnc2c1ncn2[C@H]1CC[C@@H](CO)O1

>  <GROUP>
active

$$$$
